Notes on IC50 obtained with PIK3CB (Human) (UniProt P42338).
Sequence (P42338 whole entry, looked up): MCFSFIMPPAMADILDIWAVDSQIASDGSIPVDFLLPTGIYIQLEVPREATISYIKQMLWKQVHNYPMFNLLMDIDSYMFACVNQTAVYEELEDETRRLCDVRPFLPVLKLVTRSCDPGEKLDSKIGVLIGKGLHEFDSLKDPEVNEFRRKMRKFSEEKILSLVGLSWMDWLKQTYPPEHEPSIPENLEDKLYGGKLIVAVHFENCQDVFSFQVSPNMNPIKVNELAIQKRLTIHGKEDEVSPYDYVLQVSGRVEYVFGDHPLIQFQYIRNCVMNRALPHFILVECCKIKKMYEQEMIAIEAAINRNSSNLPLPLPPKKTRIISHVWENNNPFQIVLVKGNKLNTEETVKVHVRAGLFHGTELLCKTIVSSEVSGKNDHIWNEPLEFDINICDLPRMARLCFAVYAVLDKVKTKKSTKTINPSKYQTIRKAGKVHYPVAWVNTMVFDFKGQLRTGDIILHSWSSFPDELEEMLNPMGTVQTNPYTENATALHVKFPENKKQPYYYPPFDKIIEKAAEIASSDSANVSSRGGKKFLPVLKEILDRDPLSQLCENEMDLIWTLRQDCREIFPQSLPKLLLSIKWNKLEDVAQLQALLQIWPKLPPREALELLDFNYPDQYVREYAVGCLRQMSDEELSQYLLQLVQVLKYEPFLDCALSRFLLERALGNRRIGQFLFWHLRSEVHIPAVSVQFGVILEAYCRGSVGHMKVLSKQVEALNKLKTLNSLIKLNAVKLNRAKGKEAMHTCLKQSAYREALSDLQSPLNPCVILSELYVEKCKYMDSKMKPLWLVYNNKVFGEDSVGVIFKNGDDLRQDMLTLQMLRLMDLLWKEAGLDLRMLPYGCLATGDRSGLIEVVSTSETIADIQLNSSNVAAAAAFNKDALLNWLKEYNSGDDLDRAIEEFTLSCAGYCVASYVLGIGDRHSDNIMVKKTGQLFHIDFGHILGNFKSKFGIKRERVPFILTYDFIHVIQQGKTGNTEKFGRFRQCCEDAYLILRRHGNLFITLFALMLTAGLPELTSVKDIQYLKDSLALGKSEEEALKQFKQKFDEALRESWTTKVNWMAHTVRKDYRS
Kindly provide the numeric value in nM only, without the unit symbol.

Before answering, review these 3 worked examples.
Smiles entry: COCc1ncc(-c2ccc3ncc4c(c3c2)n(-c2cn(C)nc2Cl)c(=O)n4C)cc1OC
IC50, nM: 24
--
Smiles entry: CCn1cc(-n2c(=O)n(C)c3cnc4ccc(-c5cnc(C)c(OC(C)C)c5)cc4c32)c(C)n1
IC50, nM: 30
--
Smiles entry: CCNc1cc(-c2ccc3ncc4c(c3c2)n(-c2c(C)noc2C)c(=O)n4C)cnc1Cl
IC50, nM: 101

Consider the additional compound presented here.
Param item = `CCNC(=O)c1cc(-c2ccc3ncc4c(c3c2)n(-c2c(C)nn(C)c2C)c(=O)n4C)cnc1NC` ; retrieve measured IC50.
603

From: the Kinase Knowledgebase extract (Sharma et al. 2016)
